- assay_overview: ATB200-04 trial: population PK exposure matching of adolescents to adults
- Assay type: in vivo, human
- condition_summary: human, plasma, oral, miglustat, predicted; Adults N=100; read-out: AUC0-24, Median
assay_metric: AUC(0-t) (ng·h/mL)

>>> df
                      smiles_representation  quantity_unit  recorded_value
0  CCCCN1C[C@H](O)[C@@H](O)[C@H](O)[C@H]1CO        ng·h/mL           20700

---

- assay_overview: ATB200-04 trial: population PK exposure matching of adolescents to adults
- Type: in vivo, human
- condition_summary: human, plasma, oral, miglustat, predicted; Adults N=100; read-out: Cmax, P95
assay_metric: Cmax

>>> df
                      smiles_representation  assay_metric  recorded_value
0  CCCCN1C[C@H](O)[C@@H](O)[C@H](O)[C@H]1CO          Cmax      3280 ng/mL
